- system_under_test: MDMX (Homo sapiens, UniProt O15151)
- Sequence (O15151 1-120): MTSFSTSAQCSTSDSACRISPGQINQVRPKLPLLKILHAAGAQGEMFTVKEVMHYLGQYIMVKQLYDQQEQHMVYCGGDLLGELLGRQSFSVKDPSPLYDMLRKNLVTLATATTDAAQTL
- protocol_details: ITC; MALDI-TOF MS of covalent adducts, no reducing agent
measurement_name: Kd

Request: Record request: Kd value, item CCOc1cc(/C=C2\C(=O)N(c3ccccc3)N=C2C)cc(Cl)c1OCC(=O)OC
Response: > 13 µM
